Tested on: Trypanosoma cruzi
assay-method-text: Antitrypanosomal activity against epimastigotes of Trypanosoma cruzi Y assessed as parasite growth inhibition after 5 days by spectrophotometric analysis
Type: functional, organism-based
observation-type: log(1/C)

get_value(item= CC(=O)N1N=C(c2ccc(C#N)cc2)OC1c1ccc([N+](=O)[O-])o1 (stereo not given) , readout=log(1/C)) returns 4.87

get_value(item= CC(=O)N1N=C(c2ccccc2)OC1c1ccc([N+](=O)[O-])o1 (stereo not given) , readout=log(1/C)) returns 4.99

get_value(item= CC(=O)N1N=C(c2ccc(Cl)cc2)OC1c1ccc([N+](=O)[O-])o1 (stereo not given) , readout=log(1/C)) returns 4.94

get_value(item= O=C(N/N=C/c1ccc([N+](=O)[O-])o1)c1ccc([N+](=O)[O-])cc1 , readout=log(1/C)) returns 5.02

get_value(item= COc1ccc(C2=NN(C(C)=O)C(c3ccc([N+](=O)[O-])o3)O2)cc1 (stereo not given) , readout=log(1/C)) returns 5.03

====

Test system: Trypanosoma cruzi
assay-method-text: Antitrypanosomal activity against epimastigotes of Trypanosoma cruzi Y assessed as parasite growth inhibition after 5 days by spectrophotometric analysis
Assay type: functional, organism-based
test-conditions: Trypanosoma cruzi, Y, 120 h
pIC50: −log10 of the molar value.
Decision: pIC50 >= 5 yields Condition met, all other cases yield Condition not met.

// known answers, use as guide
INSERT INTO measurements (molecule, test_target, class_assignment) VALUES
  ('O=C(N/N=C/c1ccc([N+](=O)[O-])o1)c1ccccc1', 'Trypanosoma cruzi', 'Condition met'),
  ('O=C(N/N=C/c1ccc([N+](=O)[O-])o1)c1ccc(Cl)cc1', 'Trypanosoma cruzi', 'Condition met'),
  ('O=C(N/N=C/c1ccc([N+](=O)[O-])o1)c1ccc(Br)cc1', 'Trypanosoma cruzi', 'Condition met'),
  ('COc1ccc(C(=O)N/N=C/c2ccc([N+](=O)[O-])o2)cc1', 'Trypanosoma cruzi', 'Condition met');

-- ask Item O=C(Cn1ccnc1[N+](=O)[O-])NCc1ccccc1 [BENZNIDAZOLE] with pIC50 of 5 or above?
-- reply Condition not met

====

In this section, each of the compounds is paired with its reported selectivity ratio.
assay-method-text: Selectivity index, ratio of IC50 for mouse J774 cells to IC50 for epimastigotes of Trypanosoma cruzi Y
Assay type: toxicity, cell-based
test-conditions: read-out: Ratio IC50
Form rule: numeric answer, no unit written next to it.

INSERT INTO results (compound, observation_type, assay_value) VALUES
  ('O=C(N/N=C/c1ccc([N+](=O)[O-])o1)c1ccc([N+](=O)[O-])cc1', 'selectivity ratio', 8.37),
  ('CC1CS(=O)(=O)CCN1/N=C/c1ccc([N+](=O)[O-])o1 (stereo not given)', 'selectivity ratio', 74.2);

With those in mind, consider the next compound.
get_value(item= CCCCc1ccc(C(=O)N/N=C/c2ccc([N+](=O)[O-])o2)cc1 , readout=selectivity ratio) returns 26.7

====

In this section, each of the compounds is paired with its reported Ratio IC50.
assay-method-text: Selectivity index, ratio of IC50 for human FN1 fibroblasts to IC50 for epimastigotes of Trypanosoma cruzi Y

Use the examples below as a reference point.
INSERT INTO measurements (compound, observation_type, assay_value) VALUES
  ('CCCCc1ccc(C2=NN(C(C)=O)C(c3ccc([N+](=O)[O-])o3)O2)cc1 (stereo not drawn)', 'Ratio IC50', 22.49),
  ('CC1CS(=O)(=O)CCN1/N=C/c1ccc([N+](=O)[O-])o1 (stereo not drawn)', 'Ratio IC50', '>53'),
  ('O=C(N/N=C/c1ccc([N+](=O)[O-])o1)c1ccc(Cl)cc1', 'Ratio IC50', '>49.63');

get_value(item= O=C(N/N=C/c1ccc([N+](=O)[O-])o1)c1ccc([N+](=O)[O-])cc1 , readout=Ratio IC50) returns 18.83

get_value(item= O=C(Cn1ccnc1[N+](=O)[O-])NCc1ccccc1 , readout=Ratio IC50) returns >9

get_value(item= CC(=O)N1N=C(c2ccc(Cl)cc2)OC1c1ccc([N+](=O)[O-])o1 (stereo not drawn) , readout=Ratio IC50) returns >17

get_value(item= CC(=O)N1N=C(c2ccc([N+](=O)[O-])cc2)OC1c1ccc([N+](=O)[O-])o1 (stereo not drawn) , readout=Ratio IC50) returns >14

get_value(item= CCCCc1ccc(C(=O)N/N=C/c2ccc([N+](=O)[O-])o2)cc1 , readout=Ratio IC50) returns 93.33

====

assay-method-text: Selectivity index, ratio of IC50 for mouse J774 cells to IC50 for epimastigotes of Trypanosoma cruzi Y
Assay type: toxicity, cell-based
test-conditions: read-out: Ratio IC50
observation-type: selectivity ratio
Form rule: numeric answer, no unit written next to it.

INSERT INTO assay_data (molecule, assay_value) VALUES
  ('O=C(N/N=C/c1ccc([N+](=O)[O-])o1)c1ccc(Cl)cc1', 14.2);

With those in mind, consider the next molecule.
get_value(item= CC(=O)N1N=C(c2ccc([N+](=O)[O-])cc2)OC1c1ccc([N+](=O)[O-])o1 (stereo not drawn) , readout=selectivity ratio) returns 8.21

====

Tested on: Trypanosoma cruzi
assay-method-text: Antitrypanosomal activity against epimastigotes of Trypanosoma cruzi Y assessed as parasite growth inhibition after 5 days by spectrophotometric analysis
Assay type: functional, organism-based
test-conditions: Trypanosoma cruzi, Y, 120 h
Rule: IC50 below 8 µM gives criterion met, anything at or above gives criterion not met.

// known answers, use as guide
INSERT INTO measurements (molecule, class_assignment) VALUES
  ('CC(=O)N1N=C(c2ccc(I)cc2)OC1c1ccc([N+](=O)[O-])o1 (stereo not given)', 'criterion not met'),
  ('CCCCc1ccc(C(=O)N/N=C/c2ccc([N+](=O)[O-])o2)cc1', 'criterion met'),
  ('CC(=O)N1N=C(c2ccc(C)cc2)OC1c1ccc([N+](=O)[O-])o1 (stereo not given)', 'criterion not met'),
  ('CC(=O)N1N=C(c2ccccc2)OC1c1ccc([N+](=O)[O-])o1 (stereo not given)', 'criterion not met'),
  ('N#Cc1ccc(C(=O)N/N=C/c2ccc([N+](=O)[O-])o2)cc1', 'criterion not met'),
  ('CC(=O)N1N=C(c2ccc(C(F)(F)F)cc2)OC1c1ccc([N+](=O)[O-])o1 (stereo not given)', 'criterion not met'),
  ('O=C(N/N=C/c1ccc([N+](=O)[O-])o1)c1ccc(I)cc1', 'criterion met'),
  ('O=C(N/N=C/c1ccc([N+](=O)[O-])o1)c1ccc(C(F)(F)F)cc1', 'criterion met');

-- ask Quick check: IC50 of CCCCc1ccc(C2=NN(C(C)=O)C(c3ccc([N+](=O)[O-])o3)O2)cc1 (stereo not given) under 8 µM?
-- reply criterion not met

-- ask Quick check: IC50 of Cc1ccc(C(=O)N/N=C/c2ccc([N+](=O)[O-])o2)cc1 under 8 µM?
-- reply criterion met

====

Test system: Trypanosoma cruzi
assay-method-text: Antitrypanosomal activity against epimastigotes of Trypanosoma cruzi Y assessed as parasite growth inhibition after 5 days by spectrophotometric analysis
Type: functional, organism-based
In this section, each of the molecules is paired with its reported log(1/C).
Form rule: numeric answer, no unit written next to it.

Use the examples below as a reference point.
INSERT INTO results (molecule, observation_type, assay_value) VALUES
  ('CC(=O)N1N=C(c2ccc(I)cc2)OC1c1ccc([N+](=O)[O-])o1 (stereo not given)', 'log(1/C)', 4.93),
  ('CC(=O)N1N=C(c2ccc(Br)cc2)OC1c1ccc([N+](=O)[O-])o1 (stereo not given)', 'log(1/C)', 5.01),
  ('CC(=O)N1N=C(c2ccc(C)cc2)OC1c1ccc([N+](=O)[O-])o1 (stereo not given)', 'log(1/C)', 5.01),
  ('O=C(N/N=C/c1ccc([N+](=O)[O-])o1)c1ccc(Cl)cc1', 'log(1/C)', 5.39),
  ('O=C(N/N=C/c1ccc([N+](=O)[O-])o1)c1ccc(I)cc1', 'log(1/C)', 5.49);

With those in mind, consider the next molecule.
get_value(item= O=C(N/N=C/c1ccc([N+](=O)[O-])o1)c1ccc(Br)cc1 , readout=log(1/C)) returns 5.42

====

Test system: Trypanosoma cruzi
assay-method-text: Antitrypanosomal activity against epimastigotes of Trypanosoma cruzi Y assessed as parasite growth inhibition after 5 days by spectrophotometric analysis
Assay type: functional, organism-based
test-conditions: Trypanosoma cruzi, Y, 120 h
observation-type: pIC50
Scale for pIC50: -log10 of concentration given in mol/L; no unit attached.

Use the examples below as a reference point.
INSERT INTO assay_data (compound, assay_value) VALUES
  ('CC(=O)N1N=C(c2ccc(Cl)cc2)OC1c1ccc([N+](=O)[O-])o1 (stereo unspecified)', 4.94),
  ('O=C(N/N=C/c1ccc([N+](=O)[O-])o1)c1ccc([N+](=O)[O-])cc1', 5.02);

get_value(item= CC(=O)N1N=C(c2ccc(C#N)cc2)OC1c1ccc([N+](=O)[O-])o1 (stereo unspecified) , readout=pIC50) returns 4.87
